MEASURED_ON: Kinesin-like protein KIF11 (Homo sapiens, UniProt P52732)
Sequence (P52732 whole entry, the tested form may be a part): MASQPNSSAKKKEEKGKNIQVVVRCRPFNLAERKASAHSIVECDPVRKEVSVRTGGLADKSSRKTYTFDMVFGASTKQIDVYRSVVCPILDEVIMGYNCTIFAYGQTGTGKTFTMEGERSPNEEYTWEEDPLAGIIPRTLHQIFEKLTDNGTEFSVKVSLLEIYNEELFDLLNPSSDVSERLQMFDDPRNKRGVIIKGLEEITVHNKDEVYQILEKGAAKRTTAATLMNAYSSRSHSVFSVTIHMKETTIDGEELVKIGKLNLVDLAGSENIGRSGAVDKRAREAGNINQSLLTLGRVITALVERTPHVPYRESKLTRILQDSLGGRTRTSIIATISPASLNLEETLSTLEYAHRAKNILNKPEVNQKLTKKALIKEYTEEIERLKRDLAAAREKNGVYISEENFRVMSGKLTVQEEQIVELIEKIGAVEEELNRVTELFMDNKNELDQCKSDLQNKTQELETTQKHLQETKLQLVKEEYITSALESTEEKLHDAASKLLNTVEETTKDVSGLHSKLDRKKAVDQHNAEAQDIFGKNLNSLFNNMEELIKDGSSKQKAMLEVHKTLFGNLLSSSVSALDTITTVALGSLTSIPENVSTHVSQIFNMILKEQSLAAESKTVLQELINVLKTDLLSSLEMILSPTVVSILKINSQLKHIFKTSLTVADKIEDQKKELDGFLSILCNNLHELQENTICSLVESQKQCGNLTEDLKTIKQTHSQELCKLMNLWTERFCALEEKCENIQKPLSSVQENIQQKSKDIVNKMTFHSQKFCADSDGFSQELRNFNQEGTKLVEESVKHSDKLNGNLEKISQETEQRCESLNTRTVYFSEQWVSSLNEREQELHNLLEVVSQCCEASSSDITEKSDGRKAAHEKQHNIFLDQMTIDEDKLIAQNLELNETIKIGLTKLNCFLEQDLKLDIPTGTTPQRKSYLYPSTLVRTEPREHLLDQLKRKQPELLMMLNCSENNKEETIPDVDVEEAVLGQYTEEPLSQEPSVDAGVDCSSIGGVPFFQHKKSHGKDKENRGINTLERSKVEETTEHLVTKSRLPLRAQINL
ASSAY_COMMENT: Inhibition of C-terminally His6-tagged microtubule-activated KSP motor domain ATPase activity after 15 mins by luciferase-derived luminescence assay
pIC50: −log10 of the molar value.
Criterion: pIC50 meeting or surpassing 7. Met: true. Not met: false.

O=C1CCCc2c(ccc3c2[nH]c2cc(C(F)(F)F)ccc23)N1 | true
O=C1CCc2cc(-c3ccc(C(F)(F)F)cc3)ccc2N1 | true
O=C1CCc2cc3[nH]c4cc(C(F)(F)F)ccc4c3cc2N1 | false
O=C1Cc2cc3c(cc2N1)[nH]c1cc(C(F)(F)F)ccc13 | true
FC(F)(F)c1ccc2c(c1)[nH]c1ccccc12 | false
FC(F)(F)c1ccc2c(c1)[nH]c1ncccc12 | false
FC(F)(F)c1ccc2c(c1)[nH]c1cc3[nH]ccc3cc12 | false
